B1: ELF3 (parent)
chain: LSKEYWDCLEGKKSKHAPRGTHLW

- Variants of: B1
- Assay Info: protein stability index of a GFP-peptide fusion (GPS, HEK-293T) (PSI 1-6); higher = more stable;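 note: lentivirally expressed fusions sorted by FACS into six bins by GFP to DsRed ratio, PSI derived from sequencing read proportions per bin multiplied by bin number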
- Experimental Context: c terminus: a fixed tail appended
Assign class by protein stability index: not lower than 3 means Satisfied; lower than 3 means Not satisfied.

Previously resolved entries follow.
> print(dat)
   mutations            cat
1       H16W  Not satisfied
2        E4P  Not satisfied
3       P18G  Not satisfied

Quick check, protein stability index >= 3? `C8M`
Satisfied

Quick check, protein stability index >= 3? `S14I`
Not satisfied

Quick check, protein stability index >= 3? `C8T`
Satisfied

Quick check, protein stability index >= 3? `K12R`
Not satisfied

Quick check, protein stability index >= 3? `Y5I`
Not satisfied

Quick check, protein stability index >= 3? `G11N`
Satisfied

Quick check, protein stability index >= 3? `H22A`
Not satisfied

Quick check, protein stability index >= 3? `W24D`
Satisfied

Quick check, protein stability index >= 3? `L1D`
Satisfied

Quick check, protein stability index >= 3? `R19T`
Not satisfied

Quick check, protein stability index >= 3? `A17Y`
Not satisfied

Quick check, protein stability index >= 3? `L1E`
Satisfied

Quick check, protein stability index >= 3? `E4F`
Not satisfied

Quick check, protein stability index >= 3? `E10M`
Not satisfied

Quick check, protein stability index >= 3? `W6S`
Satisfied

Quick check, protein stability index >= 3? `G11Y`
Not satisfied
